- assay.summary: Phase 1 single ascending dose (SAD) pharmacokinetics in healthy volunteers
- Type: in vivo, human
- reported.conditions: male, human, plasma, oral, 270 mg, single dose 270 mg Fasted; read-out: AUC, Observed
recorded.metric: AUC (µg·h/mL)

molecule="CC(O)c1ccc(CCOc2ccc(CC3SC(=O)NC3=O)cc2)nc1 (stereo not shown) [Leriglitazone]" recorded_metric=AUC number=369

---

- assay.summary: Phase 1 multiple ascending dose (MAD) pharmacokinetics with CSF collection in healthy volunteers
- Format: in vivo, human
- reported.conditions: male, human, CSF, oral; 270 mg MD Day 8, 4 hours post-dose; total; geometric mean (CV %); read-out: CSF C4h
recorded.metric: concentration at 4 h (ng/mL)

compound="CC(O)c1ccc(CCOc2ccc(CC3SC(=O)NC3=O)cc2)nc1 (centres unmarked)" readout_units=ng/mL number=332
compound="CC(=O)c1ccc(CCOc2ccc(CC3SC(=O)NC3=O)cc2)nc1 (centres unmarked)" readout_units=ng/mL number=22

---

- assay.summary: Phase 1 single ascending dose (SAD) pharmacokinetics in healthy volunteers
- Assay type: in vivo, human
- reported.conditions: male, human, plasma, oral, 30 mg, single dose 30 mg Fasted; read-out: AUC, Observed
recorded.metric: AUC (ng·h/mL)

molecule="CC(O)c1ccc(CCOc2ccc(CC3SC(=O)NC3=O)cc2)nc1 (stereo not shown) [Leriglitazone]" recorded_metric=AUC readout_units=ng·h/mL number=44200

---

This listing pairs molecules with measured Cmax.
- assay.summary: Phase 1 multiple ascending dose (MAD) pharmacokinetics with CSF collection in healthy volunteers
- Type: in vivo, human
- reported.conditions: male, human, plasma, oral, 270 mg, 270 mg MD Day 1, n = 8; plasma total; geometric mean; read-out: Cmax
recorded.metric: Cmax (ng/mL)

molecule="CC(O)c1ccc(CCOc2ccc(CC3SC(=O)NC3=O)cc2)nc1 (centres unmarked)" readout_units=ng/mL number=10000
molecule="CC(=O)c1ccc(CCOc2ccc(CC3SC(=O)NC3=O)cc2)nc1 (centres unmarked)" readout_units=ng/mL number=5360

---

- assay.summary: Phase 1 single ascending dose (SAD) pharmacokinetics in healthy volunteers
- Format: in vivo, human
- reported.conditions: male, human, plasma, oral, 270 mg, SAD 270 mg fed, n = 5; geometric mean (CV %); read-out: Vz/F
recorded.metric: Vd/F (L)

molecule="CC(O)c1ccc(CCOc2ccc(CC3SC(=O)NC3=O)cc2)nc1 (stereo not shown) [Leriglitazone]" readout_units=L number=24.9

---

- assay.summary: Phase 1 multiple ascending dose (MAD) pharmacokinetics with CSF collection in healthy volunteers
- Format: in vivo, human
- reported.conditions: male, human, plasma, oral, 135 mg, 135 mg daily, fed, Day 8; read-out: Tmax, Observed
recorded.metric: Tmax (h)

compound="CC(O)c1ccc(CCOc2ccc(CC3SC(=O)NC3=O)cc2)nc1 (stereo not shown)" number=4

---

- assay.summary: Phase 1 single ascending dose (SAD) pharmacokinetics in healthy volunteers
- Assay type: in vivo, human
- reported.conditions: male, human, plasma, oral, 270 mg, SAD 270 mg Fed; NCA estimate; per kg body weight; read-out: Vss
recorded.metric: Vd (L/kg)

compound="CC(O)c1ccc(CCOc2ccc(CC3SC(=O)NC3=O)cc2)nc1 (stereo not shown)" recorded_metric=Vd readout_units=L/kg number=0.3
